Experiment: Stability of DNPs by DLS after storage at 5° C.
Format: physicochemical
Settings: after 27 days at 5° C.; IAJD 4.0 mg/mL + Luc-mRNA 0.1 mg/mL, acetate buffer
For each of the molecules below, state its Size (d, nm).
Note: unit nm is implicit; provide only the numeric part.

input: // lookup Size (d, nm) for CCCCCCCCCCCCCCCOc1cc(COC(=O)CCCN2CCN(CCO)CC2)cc(OCCCCCCCCCC)c1
output: 214

input: # repeat for CCCCCCCCCCCCCCCOc1cc(COC(=O)CCCN2CCN(C)CC2)cc(OCC(CC)CCCC)c1 (centres unmarked)
output: 92

input: # repeat for CCCCCCCCCCCCCCCOc1cc(COC(=O)CCCN2CCN(CCO)CC2)cc(OCC(CC)CCCC)c1 (centres unmarked)
output: 153

input: # repeat for CCCCCCCCCCCCCCCOc1cc(COC(=O)CCCN2CCN(C)CC2)cc(OCCCCCCCCCC)c1
output: 156

input: # repeat for CCCCCCCCCCCCCCCOc1cc(COC(=O)CCCN2CCN(C)CC2)cc(OCCCCCCCCCCCCC)c1
output: 189

input: # repeat for CCCCCCCCCCCCCCCOc1cc(COC(=O)CCCN2CCN(C)CC2)cc(OCCCCCCCCCCCC)c1
output: 166

input: # repeat for CCCCCCCCCCCCCCCOc1cc(COC(=O)CCCN2CCN(CCO)CC2)cc(OCCCCCCCCCCCCC)c1
output: 227

input: # repeat for CCCCCCCCCCCCCCCOc1cc(COC(=O)CCCN2CCN(CCO)CC2)cc(OCCCCCCCCCCCC)c1
output: 216

====

Assay: Dimensions (size, PDI) of DNPs co-assembled from IAJDs and Luc-mRNA by DLS
Assay type: physicochemical
Settings: Table 13; DNPs, IAJD 4 mg/mL + Luc-mRNA 0.10 mg/mL, acetate buffer pH 4.0
QUANTITY: Size (d, nm)

input: // lookup Size (d, nm) for CCCCCCCCCCCCOc1cc(COC(=O)CCCN2CCCCC2)cc(OCCCCCCCCCCCC)c1 [IAJD 65]
output: 241 nm

input: # repeat for CCCCCCCCCCCCCCCCOc1cc(COC(=O)CCCN2CCN(C)CC2)cc(OCCCCCCCCCCCCCCCC)c1 [IAJD 75]
output: 235 nm

input: # repeat for CCCCCCCCCCCCCCOc1cc(CNC(=O)CCCN2CCN(C)CC2)cc(OCCCCCCCCCCCCCC)c1 [IAJD 108]
output: 214 nm

input: # repeat for CCCCCCCCOc1cc(COC(=O)CCCN2CCN(CCO)CC2)cc(OCCCCCCCC)c1 [IAJD 89]
output: 149 nm

====

Assay: DLS size of dendrimersomes assembled from glycerol-JDs in water at different concentrations
Format: physicochemical
Settings: JD 0.3 mg·mL−1 in water
QUANTITY: PDI
Just the number.

input: // lookup PDI for CCCCCCCCCCCCOc1cc(OCCCCCCCCCCCC)cc(C(=O)OC[C@H](COC(=O)C(C)(COC(=O)c2cc(OCCOCCOCCOC)c(OCCOCCOCCOC)c(OCCOCCOCCOC)c2)COC(=O)c2cc(OCCOCCOCCOC)c(OCCOCCOCCOC)c(OCCOCCOCCOC)c2)OC(=O)c2cc(OCCCCCCCCCCCC)cc(OCCCCCCCCCCCC)c2)c1 [Compound 1R, (3,5)-12G1-GC-(R)-BMPA-(3,4,5)-3EO-G1]
output: 0.190

input: # repeat for CCCCCCCCCCCCOc1cc(OCCCCCCCCCCCC)cc(C(=O)OCC(COC(=O)C(C)(COC(=O)c2cc(OCCOCCOCCOC)c(OCCOCCOCCOC)c(OCCOCCOCCOC)c2)COC(=O)c2cc(OCCOCCOCCOC)c(OCCOCCOCCOC)c(OCCOCCOCCOC)c2)OC(=O)c2cc(OCCCCCCCCCCCC)cc(OCCCCCCCCCCCC)c2)c1 (racemic) [Compound 1rac, (3,5)-12G1-GC-(rac)-BMPA-(3,4,5)-3EO-G1]
output: 0.203

input: # repeat for CCCCCCCCCCCCOc1cc(OCCCCCCCCCCCC)cc(C(=O)OC[C@@H](COC(=O)C(C)(COC(=O)c2cc(OCCOCCOCCOC)c(OCCOCCOCCOC)c(OCCOCCOCCOC)c2)COC(=O)c2cc(OCCOCCOCCOC)c(OCCOCCOCCOC)c(OCCOCCOCCOC)c2)OC(=O)c2cc(OCCCCCCCCCCCC)cc(OCCCCCCCCCCCC)c2)c1 [Compound 1S, (3,5)-12G1-GC-(S)-BMPA-(3,4,5)-3EO-G1]
output: 0.186

input: # repeat for CCCCCCCCCCCCOc1cc(OCCCCCCCCCCCC)cc(C(=O)OCC(C)(COC(=O)c2cc(OCCCCCCCCCCCC)cc(OCCCCCCCCCCCC)c2)C(=O)OC[C@H](COC(=O)c2cc(OCCOCCOCCOC)c(OCCOCCOCCOC)c(OCCOCCOCCOC)c2)OC(=O)c2cc(OCCOCCOCCOC)c(OCCOCCOCCOC)c(OCCOCCOCCOC)c2)c1 [Compound 2S, (3,5)-12G1-BMPA-GC-(S)-(3,4,5)-3EO-G1]
output: 0.235

input: # repeat for CCCCCCCCCCCCOc1cc(OCCCCCCCCCCCC)cc(C(=O)OCC(C)(COC(=O)c2cc(OCCCCCCCCCCCC)cc(OCCCCCCCCCCCC)c2)C(=O)OC[C@@H](COC(=O)c2cc(OCCOCCOCCOC)c(OCCOCCOCCOC)c(OCCOCCOCCOC)c2)OC(=O)c2cc(OCCOCCOCCOC)c(OCCOCCOCCOC)c(OCCOCCOCCOC)c2)c1 [Compound 2R, (3,5)-12G1-BMPA-GC-(R)-(3,4,5)-3EO-G1]
output: 0.227
